Just for reference, patent US11591355B2 is where these values come from.

targetOrSystem: Human CD73 (Homo sapiens, UniProt P21589)
Construct: purchased R&D Systems; host or cells: CHO cells
Sequence (P21589 27-549): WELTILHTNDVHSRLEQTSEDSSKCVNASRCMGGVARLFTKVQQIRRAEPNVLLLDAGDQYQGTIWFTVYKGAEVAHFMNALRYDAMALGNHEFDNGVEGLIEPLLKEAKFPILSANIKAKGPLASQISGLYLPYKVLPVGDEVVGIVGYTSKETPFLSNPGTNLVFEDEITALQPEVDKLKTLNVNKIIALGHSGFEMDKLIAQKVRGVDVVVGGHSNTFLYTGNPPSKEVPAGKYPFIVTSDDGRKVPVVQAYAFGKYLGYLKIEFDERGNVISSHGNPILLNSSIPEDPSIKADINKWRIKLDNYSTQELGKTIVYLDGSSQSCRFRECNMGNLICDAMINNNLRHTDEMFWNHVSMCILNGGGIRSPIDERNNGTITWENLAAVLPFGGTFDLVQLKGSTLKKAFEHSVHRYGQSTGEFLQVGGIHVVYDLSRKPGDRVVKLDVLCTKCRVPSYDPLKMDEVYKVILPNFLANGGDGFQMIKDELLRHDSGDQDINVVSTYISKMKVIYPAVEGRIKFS
assayNotes: CD73 Enzyme Assay
Format: biochemical
measurementConditions: 0.25 nM hCD73, 25 μM AMP, kinetic read at 360 nm; read-out: CD73 Enzyme Assay IC50
Entries annotated with measured IC50

compound	targetOrSystem	IC50
O=P(O)(O)COC[C@H]1O[C@@H](n2cnc3c(NCc4ccccc4)nc(-c4cn[nH]c4)nc32)[C@H](O)[C@@H]1O [Compound 10]	Human CD73 (Homo sapiens, UniProt P21589)	100 to 1000 nM
Cc1cn([C@@H]2O[C@H](COCP(=O)(O)O)[C@@H](O)[C@H]2O)c2nc(Cl)nc(NC3CCCC3)c12 [Compound 199]	Human CD73 (Homo sapiens, UniProt P21589)	> 1000 nM
C[C@H](Nc1nc(Cl)nc2c1ccn2[C@@H]1O[C@H](COCP(=O)(O)O)[C@@H](O)[C@H]1O)c1ccc(C#N)cc1 [Compound 117]	Human CD73 (Homo sapiens, UniProt P21589)	10 to 100 nM
C[C@@H](Nc1nc(C#N)nc2c1cnn2[C@@H]1O[C@H](CS(=O)(=O)CP(=O)(O)O)[C@@H](O)[C@H]1O)c1ccc(F)cc1 [Compound 291]	Human CD73 (Homo sapiens, UniProt P21589)	< 10 nM

In plain terms, CC(C)OC(=O)OCOP(=O)(COC[C@H]1O[C@@H](n2ccc3c(NC4CCCC4)nc(Cl)nc32)[C@H](O)[C@@H]1O)OCOC(=O)OC(C)C [Compound 214] has a documented IC50 of > 1000 nM

In plain terms, C[C@@H](Nc1nc(C#N)nc2c1ccn2[C@@H]1O[C@H](COCP(=O)(O)O)[C@@H](O)[C@H]1O)c1cccc(F)c1 [Compound 81] has a documented IC50 of < 10 nM

====

targetOrSystem: Human CD73 (Homo sapiens)
Construct: purchased R&D Systems; host or cells: CHO cells
assayNotes: CD73 Enzyme Assay
Format: biochemical
measurementConditions: 0.25 nM hCD73, 25 μM AMP, kinetic read at 360 nm; read-out: CD73 Enzyme Assay IC50
Entries annotated with measured IC50

Previously resolved entries follow.
compound	targetOrSystem	testReadout	assayResult
O=c1c2ncn([C@@H]3O[C@H](COCP(=O)(O)O)[C@@H](O)[C@H]3O)c2ncn1Cc1ccccc1	Human CD73 (Homo sapiens)	IC50	> 1000 nM
O=P(O)(O)COC[C@H]1O[C@@H](c2csc3c(NC4CCCC4)nc(Cl)nc23)[C@H](O)[C@@H]1O	Human CD73 (Homo sapiens)	IC50	10 to 100 nM
C[C@H](Nc1nc(C#N)nc2c1ccn2[C@@H]1O[C@H](COCP(=O)(O)O)[C@@H](O)[C@H]1O)c1ccc(C2CC2)cc1	Human CD73 (Homo sapiens)	IC50	< 10 nM
CC(C)Nc1ncnc2c1ncn2[C@@H]1O[C@H](COCP(=O)(O)O)[C@@H](O)[C@H]1O	Human CD73 (Homo sapiens)	IC50	100 to 1000 nM

In plain terms, "NS(=O)(=O)c1cccc(CNc2ncnc3c2ncn3[C@@H]2O[C@H](COCP(=O)(O)O)[C@@H](O)[C@H]2O)c1" has a documented IC50 of > 1000 nM

In plain terms, "C[C@H](Nc1nc(C#N)nc2c1ccn2[C@@H]1O[C@H](COCP(=O)(O)O)[C@@H](O)[C@H]1O)c1ccccc1" has a documented IC50 of 10 to 100 nM

In plain terms, O=P(O)(O)COC[C@H]1O[C@@H](c2c(Br)sc3c(N4CC5CCCC5C4)nc(Cl)nc23)[C@H](O)[C@@H]1O (stereo partly shown) has a documented IC50 of 100 to 1000 nM
